tested-on: T1, Human CD19-his protein (human, UniProt P15391 20-291)
T1 construct: bought protein; also called human CD19 protein; recombinant human CD19-His; not shown: His tag
T1 sequence (looked up): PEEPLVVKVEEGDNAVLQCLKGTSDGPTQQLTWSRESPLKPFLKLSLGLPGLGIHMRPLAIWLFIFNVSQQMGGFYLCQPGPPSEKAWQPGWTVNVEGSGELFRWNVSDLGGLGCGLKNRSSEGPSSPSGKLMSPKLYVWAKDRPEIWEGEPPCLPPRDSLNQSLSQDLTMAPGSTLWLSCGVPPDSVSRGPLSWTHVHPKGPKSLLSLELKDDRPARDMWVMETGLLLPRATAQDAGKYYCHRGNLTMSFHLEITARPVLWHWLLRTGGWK
protocol-text: ELISA, antibody at 10 nM
One threshold, 0.7, splits the recorded OD450 values: lower ones are Met, equal or higher ones are Not met.

Would you please look over these solved cases?
1) F5.3.6 (antibody, human IgG1, V domains shown, human-murine chimeric antibody, human IgG1) VH: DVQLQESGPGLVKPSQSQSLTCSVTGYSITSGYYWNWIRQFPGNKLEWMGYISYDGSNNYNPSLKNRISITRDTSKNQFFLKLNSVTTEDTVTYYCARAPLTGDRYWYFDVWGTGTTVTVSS VL: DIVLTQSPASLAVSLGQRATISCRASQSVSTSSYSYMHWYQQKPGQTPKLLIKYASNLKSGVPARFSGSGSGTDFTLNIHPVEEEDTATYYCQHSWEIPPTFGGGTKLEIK	Not met
2) F4.4.6 (antibody, human IgG1, V domains shown, human-murine chimeric antibody, human IgG1) VH: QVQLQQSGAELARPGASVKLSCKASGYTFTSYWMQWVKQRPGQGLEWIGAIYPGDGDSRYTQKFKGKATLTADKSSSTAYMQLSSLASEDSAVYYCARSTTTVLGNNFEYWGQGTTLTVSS VL: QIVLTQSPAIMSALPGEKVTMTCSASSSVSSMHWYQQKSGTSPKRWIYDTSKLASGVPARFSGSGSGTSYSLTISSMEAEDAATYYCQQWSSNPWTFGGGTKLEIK	Met
3) F3.126.15 (antibody, human IgG1, V domains shown, human-murine chimeric antibody, human IgG1) VH: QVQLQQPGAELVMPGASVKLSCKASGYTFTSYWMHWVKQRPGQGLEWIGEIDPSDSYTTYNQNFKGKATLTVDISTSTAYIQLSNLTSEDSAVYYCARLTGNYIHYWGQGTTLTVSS VL: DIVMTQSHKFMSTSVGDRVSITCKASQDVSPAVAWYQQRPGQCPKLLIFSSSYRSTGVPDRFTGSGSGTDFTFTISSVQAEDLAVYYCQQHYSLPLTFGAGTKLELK	Met
4) F3.121.4 (antibody, human IgG1, V domains shown, human-murine chimeric antibody, human IgG1; also called chimeric antibody F3.121.4) VH: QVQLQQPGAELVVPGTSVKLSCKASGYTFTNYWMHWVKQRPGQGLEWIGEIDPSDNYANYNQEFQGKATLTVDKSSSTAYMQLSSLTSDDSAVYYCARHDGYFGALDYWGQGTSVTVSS VL: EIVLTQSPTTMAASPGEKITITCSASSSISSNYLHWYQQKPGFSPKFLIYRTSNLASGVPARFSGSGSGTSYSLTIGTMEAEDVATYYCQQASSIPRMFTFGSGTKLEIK	Not met

Asked: # strict comparison: is reported OD450 < 0.7? input = F4.35.5 (antibody, human IgG1, V domains shown, human-murine chimeric antibody, human IgG1) VH: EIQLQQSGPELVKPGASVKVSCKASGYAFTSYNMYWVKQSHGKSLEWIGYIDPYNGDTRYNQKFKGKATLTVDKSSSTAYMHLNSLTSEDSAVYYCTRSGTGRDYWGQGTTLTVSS VL: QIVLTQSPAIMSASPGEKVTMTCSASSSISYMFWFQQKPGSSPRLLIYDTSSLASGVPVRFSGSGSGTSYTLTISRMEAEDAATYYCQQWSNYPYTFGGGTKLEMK
Given back: Met
